The compounds below each have a reported Ki tested on Rho-associated protein kinase 1 (Homo sapiens, UniProt Q13464); the values come from various publications.

Item: `O=C(NCCc1ccccc1)c1ccc(-c2c[nH]c3ncccc23)s1` | System: Rho-associated protein kinase 1 (Homo sapiens, UniProt Q13464) | Ki: < 500 nM

Item: `CS(=O)(=O)Nc1cccc(CC(=O)Nc2csc(-c3c[nH]c4ncccc34)n2)c1` | System: Rho-associated protein kinase 1 (Homo sapiens, UniProt Q13464) | Ki: < 500 nM

Item: `CC(=O)N1CCCN(c2cccc(-c3c[nH]c4ncc(C(=O)NCCN5CCOCC5)cc34)n2)CC1` | System: Rho-associated protein kinase 1 (Homo sapiens, UniProt Q13464) | Ki: 500 to 5000 nM

Item: Cc1c[nH]c2nccc(Oc3ccc(C[C@H](N)C(=O)N4CCN(C)C(c5ccccc5)C4)cc3F)c12 (mixture of isomers) | System: Rho-associated protein kinase 1 (Homo sapiens, UniProt Q13464) | Ki: < 3 nM

Item: CC1=C(C(=O)Nc2ccc3cnccc3c2)C(c2ccc(C(F)(F)F)c(F)c2)n2nc(C(=O)NCCN(C)C)cc2N1 (stereo not drawn) | System: Rho-associated protein kinase 1 (Homo sapiens, UniProt Q13464) | Ki: < 50 nM

Item: `O=C(Cc1ccc(OCCN2CCNCC2)cc1Cl)Nc1cc(-c2ccnc(Cl)c2)cs1` | System: Rho-associated protein kinase 1 (Homo sapiens, UniProt Q13464) | Ki: < 100 nM

Item: `CCNc1cc(-c2csc(NC(=O)Cc3cccc(OC)c3)n2)ccn1` | System: Rho-associated protein kinase 1 (Homo sapiens, UniProt Q13464) | Ki: 100 to 1000 nM

Item: `CN1CCC(NC(=O)[C@@H](N)Cc2ccc(Oc3ccnc4[nH]cc(CO)c34)c(F)c2)CC1` | System: Rho-associated protein kinase 1 (Homo sapiens, UniProt Q13464) | Ki: 3 to 30 nM

Continuing:
Item: `Cc1noc([C@@H](N)Cc2ccc(Oc3ccnc4[nH]cc(C)c34)c(F)c2)n1` | System: Rho-associated protein kinase 1 (Homo sapiens, UniProt Q13464) | Ki: 5 to 50 nM

* * *

The molecules below each have a reported Ki tested on Rho-associated protein kinase 1 (Homo sapiens); the values come from various publications.

Here's what some known entries look like.
For `COc1cccc(CNC(=O)c2cc(-c3c[nH]c4ncccc34)cs2)c1` the molecule record lists Ki as < 0.5 µM

For `Cc1c[nH]c2nccc(Oc3ccc(C[C@H](N)C(=O)NC4CCN(CC5CC5)CC4)cc3F)c12` the molecule record lists Ki as < 0.003 µM

For `CC1(C)CCN(C(=O)Nc2cc(-c3c[nH]c4nccc(Oc5ccc6c(c5)CNCC6)c34)ccn2)CC1` the molecule record lists Ki as 0.003 to 0.03 µM

For `CC(C)[C@@H](C)Nc1cccc(-c2c[nH]c3ncc(Cl)cc23)n1` the molecule record lists Ki as 0.5 to 5 µM

For `N#Cc1cc(-c2c[nH]c3ncc(Cl)cc23)nc(N2CCCNCC2)c1` the molecule record lists Ki as < 0.5 µM

For `N#Cc1c[nH]c2nccc(Oc3ccc(C[C@H](N)C(=O)NC4CCOCC4)cc3)c12` the molecule record lists Ki as < 0.003 µM

Continuing:
For Cc1c[nH]c2nccc(Oc3ccc(C4CC(=O)N(CCCN(C)C)CN4)cc3)c12 (stereo not drawn) the molecule record lists Ki as > 0.03 µM

For `C[C@@H](C(=O)NCC(F)(F)F)N(C)c1nc(-c2c[nH]c3ncc(Cl)cc23)ncc1C(F)(F)F` the molecule record lists Ki as 0.5 to 5 µM

For `Cc1c[nH]c2nccc(Oc3c(F)cc(C[C@H](N)C(=O)N4CCC(S(=O)(=O)c5ccccc5)CC4)cc3F)c12` the molecule record lists Ki as < 0.003 µM

For `Fc1cnc(-c2c[nH]c3ncc(Cl)cc23)nc1N[C@@H]1CCNC1` the molecule record lists Ki as < 0.5 µM

For `NCc1ccc(Oc2ccnc3[nH]cc(-c4cnn(CC5CCOCC5)c4)c23)c(F)c1` the molecule record lists Ki as 0.003 to 0.03 µM

* * *

The compounds below each have a reported Ki tested on Rho-associated protein kinase 1 (Homo sapiens, UniProt Q13464); the values come from various publications.

Here's what some known entries look like.
Item: COc1ccc(-c2cc3n(n2)C(c2ccc(F)cc2)C(C(=O)Nc2ccc4[nH]ncc4c2)=C(C)N3)cc1 (stereo not drawn) | System: Rho-associated protein kinase 1 (Homo sapiens, UniProt Q13464) | Ki: < 50 nM

Item: `CCN(CC)S(=O)(=O)c1cccc(CC(=O)Nc2nc(-c3c[nH]c4ncccc34)cs2)c1` | System: Rho-associated protein kinase 1 (Homo sapiens, UniProt Q13464) | Ki: < 500 nM

Item: Cc1c[nH]c2nccc(Oc3ccc(CC(N)C(=O)N4CCN(CC5CC5)CC4)cc3F)c12 (stereo not drawn) | System: Rho-associated protein kinase 1 (Homo sapiens, UniProt Q13464) | Ki: < 3 nM

Item: `CC(=O)N1[C@H](C)CN(c2cccc(-c3c[nH]c4ncc(OCc5ccccc5)cc34)n2)C[C@@H]1C` | System: Rho-associated protein kinase 1 (Homo sapiens, UniProt Q13464) | Ki: < 500 nM

Continuing:
Item: CC1=C(C(=O)Nc2ccc3cnccc3c2)C(c2ccc(C(F)(F)F)c(F)c2)n2nc(C(=O)NCC3CCN(C)CC3)cc2N1 (stereo not drawn) | System: Rho-associated protein kinase 1 (Homo sapiens, UniProt Q13464) | Ki: < 50 nM

Item: `Cc1cc(-c2csc(NC(=O)Cc3cccc(NS(C)(=O)=O)c3)c2)ccn1` | System: Rho-associated protein kinase 1 (Homo sapiens, UniProt Q13464) | Ki: 100 to 1000 nM

Item: `CS(=O)(=O)Nc1cccc(CC(=O)N(c2nc(-c3c[nH]c4ncccc34)cs2)C2CC2)c1` | System: Rho-associated protein kinase 1 (Homo sapiens, UniProt Q13464) | Ki: < 500 nM

Item: `CCOC(=O)N1CCCN(c2cccc(-c3c[nH]c4ncc(Cl)cc34)n2)CC1` | System: Rho-associated protein kinase 1 (Homo sapiens, UniProt Q13464) | Ki: 500 to 5000 nM

Item: `Cc1c[nH]c2nccc(Oc3ccc(C[C@H](N)C(=O)N4CCC(O)(CO)CC4)cc3F)c12` | System: Rho-associated protein kinase 1 (Homo sapiens, UniProt Q13464) | Ki: < 3 nM

Item: COCCCNC(=O)C(CN)Cc1ccc(Oc2ccnc3[nH]ccc23)cc1 (stereo not drawn) | System: Rho-associated protein kinase 1 (Homo sapiens, UniProt Q13464) | Ki: 3 to 30 nM

Item: `COc1ccc(CC(=O)N(c2nc(-c3c[nH]c4ncccc34)cs2)C2CC2)c(Cl)c1` | System: Rho-associated protein kinase 1 (Homo sapiens, UniProt Q13464) | Ki: < 500 nM

Item: `Cc1c[nH]c2ncnc(Oc3ccc(C[C@H](N)C(=O)N4CC[C@H](S(=O)(=O)c5ccccc5)C4)cc3F)c12` | System: Rho-associated protein kinase 1 (Homo sapiens, UniProt Q13464) | Ki: < 3 nM

* * *

The compounds below each have a reported pKi tested on Rho-associated protein kinase 1 (Homo sapiens); the values come from various publications.
pKi: −log10 of the molar value.

Here's what some known entries look like.
Item: CN1CCC(NC(=O)C(N)c2ccc(Oc3ccnc4[nH]ccc34)cc2)CC1 (stereo not drawn) | System: Rho-associated protein kinase 1 (Homo sapiens) | pKi: < 7.52

Item: `O=C(Nc1cc(-c2c[nH]c3nccc(Oc4ccc5c(c4)CNCC5)c23)ncn1)c1ccccc1` | System: Rho-associated protein kinase 1 (Homo sapiens) | pKi: 7.52 to 8.52

Item: `CC(=O)NCc1ccc(-c2c[nH]c3ncc(-c4ccccc4)cc23)cc1` | System: Rho-associated protein kinase 1 (Homo sapiens) | pKi: 5.30 to 6.30

Item: `CS(=O)(=O)c1cccc(-c2c[nH]c3ncc(-c4ccc(F)cc4)cc23)c1` | System: Rho-associated protein kinase 1 (Homo sapiens) | pKi: > 6.30

Item: `Cc1c[nH]c2nccc(Oc3ccc(CCN4CCCC4)cc3)c12` | System: Rho-associated protein kinase 1 (Homo sapiens) | pKi: 7.30 to 8.30

Okay, now this compound:
Item: `O=C(Cc1ccc(F)cc1F)Nc1nc(-c2c[nH]c3ncccc23)cs1` | System: Rho-associated protein kinase 1 (Homo sapiens) | pKi: > 6.30

* * *

The compounds below each have a reported Ki tested on Rho-associated protein kinase 1 (Homo sapiens); the values come from various publications.

Item: `Cc1c[nH]c2nccc(Oc3ccc(C[C@H](N)C(=O)N4CCN(Cc5cnc6ccccc6n5)CC4)cc3F)c12` | System: Rho-associated protein kinase 1 (Homo sapiens) | Ki: < 3 nM

Item: `C/C=C(\C)C(=O)Nc1cnc2[nH]cc(-c3cccc(N4C[C@@H](C)N(C(C)=O)[C@@H](C)C4)n3)c2c1` | System: Rho-associated protein kinase 1 (Homo sapiens) | Ki: 500 to 5000 nM

Item: Cc1c[nH]c2nccc(Oc3ccc(C(N)CC(=O)N4CCN(Cc5ccccc5)CC4)cc3)c12 (single isomer, unassigned) | System: Rho-associated protein kinase 1 (Homo sapiens) | Ki: 3 to 30 nM

Okay, now this compound:
Item: `Cc1c[nH]c2nccc(Oc3ccc(C[C@H](N)C(=O)N4CCN(Cc5nccn5C)CC4)cc3F)c12` | System: Rho-associated protein kinase 1 (Homo sapiens) | Ki: < 3 nM
